tested on: UO-31 (Renal cancer); experiment: NCI sulforhodamine B (SRB) anticancer assay, UO-31; type: cell-based; details: UO-31 (Renal cancer) cells; read-out: LC50 (the source's name)
Below: a set of entries, each annotated with reported CC50.
endpoint-label: CC50 (µM)

>>> measured("CC(C)CCCC(=O)NC1=C2C(=CSS2(=O)=O)N(C)C1=O")
6
>>> measured("CCCCCC(=O)NC1=C2C(=CSS2(=O)=O)N(C)C1=O")
1.85

###

Tested on: Hela
Assay: NCI sulforhodamine B (SRB) anticancer assay, Hela
Assay type: cell-based
Settings: Hela cells; read-out: LC50 (the source's name)
Excerpt: The method normally used by the American National Cancer Institute (NCI) for the effectiveness of a compound is based on the LC50. The LC50 is the compound concentration at which half of the cancer cell population is killed. […] The anticancer activities of compounds of the present invention have been determined in cell cultures of various human cancer cells (see table below) using the standard NCI method with slight modifications. […] Finally, the plates were read in a microtiter plate reader at 570 nm.
Threshold check on CC50: strictly below 200 nM is TRUE; on or above 200 nM is FALSE.

>>> assigned_category("CC(C)CCCC(=O)Nc1c2[s+]([O-])scc-2n(C)c1=O (centres unmarked) [XM2]")
"FALSE"
>>> assigned_category("CC(C)CCCC(=O)NC1=C2C(=CSS2(=O)=O)N(C)C1=O [XO2]")
"TRUE"
>>> assigned_category("CCCCCC(=O)Nc1c2[s+]([O-])scc-2n(C)c1=O (centres unmarked) [XM1]")
"FALSE"
>>> assigned_category("CCCCCC(=O)NC1=C2C(=CSS2(=O)=O)N(C)C1=O [XO1]")
"TRUE"
>>> assigned_category("CCCCCC(=O)Nc1c2sscc-2n(C)c1=O [XN1]")
"FALSE"

src = patent US6583171B1
